Collected thrombin peak (nM) at 25.0 nM, FVIII-neutralised plasma, endogenous TFPI values appear next to each entry.
target: endogenous TFPI of normal human plasma (human, UniProt P10646 29-304, limits assumed); test: cell-based or functional assay
Numbers only; they are read as nM.

Solved cases below.
Fab 0094 (Fab fragment of mAb 2007) (Fab, V domains shown, KPI-2 specific) VH: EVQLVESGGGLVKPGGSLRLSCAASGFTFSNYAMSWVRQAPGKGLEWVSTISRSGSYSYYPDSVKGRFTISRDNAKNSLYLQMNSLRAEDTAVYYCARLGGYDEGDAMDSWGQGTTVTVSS VL: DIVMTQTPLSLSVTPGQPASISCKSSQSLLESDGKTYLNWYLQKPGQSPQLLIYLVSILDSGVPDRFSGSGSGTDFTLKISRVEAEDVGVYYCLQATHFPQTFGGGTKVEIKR
60.2
Fab 0095 (Fab fragment of mAb 2014) (Fab, V domains shown, KPI-2 specific) VH: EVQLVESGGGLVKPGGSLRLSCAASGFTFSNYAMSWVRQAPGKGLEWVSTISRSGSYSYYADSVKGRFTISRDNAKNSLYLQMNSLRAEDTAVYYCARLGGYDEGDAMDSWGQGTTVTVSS VL: DIVMTQTPLSLSVTPGQPASISCKSSQSLLESDGKTYLNWLLQRPGESPKLLIYLVSILDSGVPDRFSGSGSGTDFTLKISRVEAEDVGVYYCLQATHFPQTFGGGTKVEIKR
84.9
Fab 0088 (Fab fragment of mAb 2021) (Fab, V domains shown, free C-terminal cysteine; KPI-2 specific) VH: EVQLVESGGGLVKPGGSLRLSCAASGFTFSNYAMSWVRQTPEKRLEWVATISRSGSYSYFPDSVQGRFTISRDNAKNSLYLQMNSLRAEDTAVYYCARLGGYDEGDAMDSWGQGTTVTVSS VL: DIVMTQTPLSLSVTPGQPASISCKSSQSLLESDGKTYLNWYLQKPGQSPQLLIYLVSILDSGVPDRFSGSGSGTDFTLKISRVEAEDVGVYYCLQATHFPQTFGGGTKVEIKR
102

Okay, now this binder:
Consider the binder mAb 2021 (antibody, human IgG4 S228P, kappa, V domains shown) VH: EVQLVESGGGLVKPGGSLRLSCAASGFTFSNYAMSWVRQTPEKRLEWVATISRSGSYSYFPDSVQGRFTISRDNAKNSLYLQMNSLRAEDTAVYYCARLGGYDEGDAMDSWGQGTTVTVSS VL: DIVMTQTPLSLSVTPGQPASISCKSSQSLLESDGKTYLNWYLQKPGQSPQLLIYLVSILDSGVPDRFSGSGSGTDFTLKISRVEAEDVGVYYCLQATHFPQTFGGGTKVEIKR and give its measured thrombin peak (nM) at 25.0 nM, FVIII-neutralised plasma, endogenous TFPI.
116
